Provenance of the data: paper PMC4684500

The reader will find reported MIC values listed item by item below.
- Tested on: Pseudomonas aeruginosa ATCC-27853
- Assay type: cell-based
- measurement context: ATCC-27853, 24 h
Where no end group is shown, it is not given here.

sequence code: RIRFPWPWRWPWWPRFRG [buCATHL4D]
target of assay: Pseudomonas aeruginosa ATCC-27853
measurement units: µM
relation symbol: =
MIC: 25
--
sequence code: RIRFPWPWRWPWWRRVRG [buCATHL4C]
target of assay: Pseudomonas aeruginosa ATCC-27853
measurement units: µM
relation symbol: =
MIC: 0.2
--
sequence code: AIPWSIWWRLLFKG [buCATHL4F]
target of assay: Pseudomonas aeruginosa ATCC-27853
measurement units: µM
relation symbol: =
MIC: 100
--
sequence code: AIPWSIWWHLLFKG [buCATHL4G]
target of assay: Pseudomonas aeruginosa ATCC-27853
measurement units: µM
relation symbol: =
MIC: 200
--
sequence code: GLPWILLRWLFFRG [buCATHL4A]
target of assay: Pseudomonas aeruginosa ATCC-27853
measurement units: µM
relation symbol: >
MIC: 200
